- procedure_summary: soluble on expression in E. coli; label from the status in PepcDB or PDB records

sequence_input | soluble on expression in E. coli
MGSDKIHHHHHHMLLTIDDVLTQEELAIARSMLARSAWVSGLVTAGTQAAQVKNNQQVQENDPQIVNLRRLVLGALNRNALFFTATLPEKIVPPFFNRYSGETNHYGFHVDNAMRLLPDGSGYVRTDVSATLFLSDPQEYDGGELVINDTFGQHGVKLQAGSMVIYPSSSIHQVTPVTRGERLACFMFIQSMVRNPDQRRLLYEMDMALLQLRQNIGETPAVVSLTGTYHNLLRQWADS | not soluble
MTIDMRLRPPLQSWKSTAQFKEGTAYYPTRYGFPRPKSVGTQDIGDLLAEMDEADITWGVVMGRQSAPPHGIVPNEEISDFVRQHADRFVGFAGIDLRDIDKAVADLDGYARSDEFKGISIEPGAGFVPLYSDDPSLFPLYERAQELQLPLSITLSGYLSSMAGHPTSYGNPSPVATVARKFPRLKIVVSHAAWPNVMPMLEVAFLHDNVYVSPDLYMNHVHTPGAHEYINAAKFYLADRLLFGTAYPSRPLKESVAGFRQWDLDSELAEKILHRNAARLLGLELEHHHHHH | not soluble
MAHHHHHHMPPLTLEQVLARSMRLPRKHMKHTATPMASNPAIGISTPLDNSLGRGDKSVAKLFSLIEKDEESTAAGRPFIHQSNNLIRNSHDLLTYLHTAKRMRAWEDALRSFAEVTKMLLINQTEEGDGVSLTLREGAEGAEGVTASVSHLALLLDTCASAKQWHLVEQIGEIFRSQSRQTLIDAVAVLANTKKETIGEGLYGWERALHFLQTRIPPEEQPVEAYNACIAACETALEWEGALAIVRSMGPNPLQNLDSKVFSGTTGIGVASAGSTVEGVSSSLGTEAREESVLATFPPPVPDVVTYATLISVLEQSGKEALASEVLQRLPPVEKEEITASYAALIHVWSEQKYRNHRRRF | not soluble

###

- procedure_summary: soluble on expression in E. coli; label from the status in PepcDB or PDB records
measurement_label: soluble on expression in E. coli

Use these answered entries as a reference point.
sequence_input | soluble on expression in E. coli
MSLSSAQQWSYVRQLQREIRRSDVLDLPLEKLPVVVFDLETSGFYPDQGDRILSIGAVKVVGLTIQEEETFYSVVHTDTVPPENILELTGLSVEELEAAPPLTSVLESFYAFIRHSTLVAHHASHEKAFMSHVTWQTMKLPFEHRVIDTSFLTKIVAPQELVTLDDCCAYYSIPVQNRHHAFEDSLMTAKLWIAAIAAAREAGEGHHHHHH | not soluble
PTPKTELVQKFRVQYLGMLPVDRPVGMDTLNSAIENLMTSSSKEDWPSVNMNVADATVTVISEKNEEEVLVECRVRFLSFMGVGKDVHTFAFIMDTGNQRFECHVFWCEPNAANVSEAVQAACSGPSSGIEGRGSSGSSGSSGSSGDAAVTPEERHLSKMQQNGYENPTYKFFEQMQN | soluble
MGSDKIHHHHHHMPLTNHTPEDRVQDIFDHIAPQYDQMNSVISLGTHHWWRQRVMQAMTLHAGDFALDVCCGTGDWTIALAQAVGPAGHVVGFDFSGVMLQHATTKVRQAQLDDRITLRQGDAMQLPYPDNYFNVVTIGFGLRNVPDATQVLREMARVVKPGGQVVCLETSQPTNPLVHAGWQVYFGHVVPLMGRLAHHYQAYNYLQSSTHHFVSAKELSRLFTAAGLTQVHYDLFNLGAAAVHWGRKPY | not soluble
MYTKILGTGSYLPVQVRSNADLEKMVDTSDEWIVTRTGIRERRIAGLDETVATMGFQAAEKALEMAGIDKDDIGLIIVATTSSSHAFPSSACQVQRMLGIKDAASFDLAAACAGFTYALSVADQYVKSGAVKHAIVIGSDVLSRALDPEDRGTIILFGDGAGAVVLGASEQPGIMSTHLHADGRYGELLALPYPDRQQDQPAYVTMAGNEVFKVAVTELAHIVDETLQANNLDRTALDWLVPHQANLRIISATAKKLGMGMDKVVITLDRHGNTSAASVPSAFDEAVRDGRIQRGQLVLLEAFGGGFTWGSALVRF | not soluble
MAWGQIAVVSPLVNIPVNTIEQSLLRQLPGCWGCKDKDSVFRYVNQEYAELLGHASPEECIGKTDFEMSSPTTECAQEFQRQDKHVIETGESLKILDIHPYPDGRWRAHIFTKTPWRDEQGNTLGTIFYGRELTDTAVIEVGYWVCRAIGTDMNHQSIFRFSNLNPKPEKLTCREQETLFLLLYGKKPQFISQVMGISTKTVEGHVARLRNKFEANSKNELIDKAMEAGYGSVVPKTLLKHQLSVVLNGER | not soluble
CFTPESTALLESGVRKPLGELSIGDRVLSMTANGQAVYSEVILFMDRNLEQMQNFVQLHTDGGAVLTVTPAHLVSVWQPESQKLTFVFADRIEEKNQVLVRDVETGELRPQRVVKVGSVRSKGVVAPLTREGTIVVNSVAASCYA | soluble

Next up:
Enquiry: Fill in the blank: the reported soluble on expression in E. coli of `MGSDKIHHHHHHMILSKTGIRHKEDLVPPANGVDVGIIKIGDGRVMSVTTDPFYFDPVFGYEDSAWFAYHILASDLLTSGANPDYMTVDLNLPLSMTDEEISRMWNAFTEEAARFGTSIITGHTARYAGTSFPMIGGITAMGFIGEDEYVTSAMARPGDKVVLTKTPAIEAAALLTRLFPGTIKAKLGDELFSYGVDLFRKLTTVHESLVCKRFGLRTRVTAMHDVTEGGLLGALFEIADSSGNGIRIHEDSIKVDDYVKRVCSIFSIDPLMAISEGALLITVKPDHAEDLVSSLKANGIDANVIGEMTADPSERIIVGREKRTIGPPQKDPFWTAVEFGISEDWK` is ____.
Return: not soluble

###

- procedure_summary: soluble on expression in E. coli; label from the status in PepcDB or PDB records
measurement_label: soluble on expression in E. coli

sequence_input | measurement_label | result
LPAGLYFVGTPIGSARDITLRALDVLASAEVIAAEDTRSLRHLLDIHGVPLDGRRVLAYHDHSGAGAQARLLEALAEGKSVAYASEAGMPLIADPGFELSRAAAEAGHMVTCAPGPS | soluble on expression in E. coli | not soluble
MGYEGIIVVDVRDAEAYKECHIPTAISIPGNKINEDTTKRLSKEKVIITYCWGPACNGATKAAAKFAQLGFRVKELIGGIEYWRKENGEVEGTLGAKADLFWNMKKESLEHHHHHH | soluble on expression in E. coli | not soluble
MGSDKIHHHHHHMSQLVRPTLELPAGRRKVLLHSCCAPCSGEVMEAMTASGIDYAIYFYNPNIHPVKEYEIRKNENIRFAEEHGIEFIDADYDMDNWFERVKGMENEPERGIRCTACFDMRFERTALYAHEHGFDTITSSLGISRWKDMNQINGCGERAAARYDDLVYWTYNWRKGGGSQRMIEISKRENFYQQEYCGCVYSLRDTNRHRRAQGRERIHLGVKFYGVEEKL | soluble on expression in E. coli | not soluble

###

- procedure_summary: soluble on expression in E. coli; label from the status in PepcDB or PDB records
measurement_label: soluble on expression in E. coli

Example entries and their recorded answers appear below.
sequence_input | soluble on expression in E. coli
AIAGRKSNRAKEKKQRRLEERAAMDAVCAKVDAANKLEDPLSAMPVFKKYDRNGLNLQIECKRVTALSPDTVEWAYELTRANMQTLYEQSEWGWKEREKREEMKDERAWYLLARDADSTPLAFSHFRFDVECGDEVLYCYEVQLESKVRRKGLGKFLIQILQLIANSTQMKKVMLTVFKHNHGAYQFFREALQFEIDETSPSMSGCCGEDCSYEILSRRTKYGEVSGHAHGGHCGGCCH | soluble
MFLLQAPLQRRILEIGKKHGITELHPDVVSYVSHATQQRLQNLVEKISETAQQKNFSYKDDDRYEQASDVRAQLK | soluble
MGSDKIHHHHHHMRTICVFNNKGGVGKTTLLCNLAAYFSIKRGKKVLVVDADPQCNATAYMIKEKVLDKLYASSSSDSATINSLIASLKKSKGYGIPPVLRSDGFNVDIVPGDPKFSLAEDFLAKDWLDAIAGDERGLRTTFFFRNLISWARSDGYDLVFFDMGPSLGAINRTVLLSSDHFILPMSSDIFSLRGLQNIEVALKNWTKGIERGLVSFKEDQGTSFKVESGDALSELGVSFLGYVTQQYTAKTVDGKKQPVSAYEKIIKKIDPLVSKHLILPLNKGQKLNYKLGEIPYFQSLVPMAQTATVPIFALKKADGVVGAHFDKVRQFDSVISGIVDKIEANMNSKGN | not soluble
WLEPYMTSVASVKDLSKINLVEALNARLGWPLNQHLDEWLPEHYQLPTGTKKRIRYQHGHEPVLSVRMQEVFGESTSPTVALGRKRLVLELLSPAQRPLQVTSDLAAFWNGSYKDVQKEMKGRYPKHVWPDDPANHVATTKTKRQLNND | not soluble
MGSDKIHHHHHHMDPRLLPLLSCPRHPTVTLTVEQVERVVNGAIVSGRLRCPVCATTYLIKDGILDMIGQHRPTSAAQVVNEVPVAAWAYERTWRPFALSLLSGEQFPLTRELKLITGLAGAERGGLMVDVGCSNGLYARALEHVRRQRGAGGFVVGIDLSMAMLQEAQRRARHEGLSISFIRASAQAMPFADGTVDALVMGGSLNEIGDIPAALSEWRRLLSPQGRGVMMSLVAASTPIGQGIQQLLASGGLQFPSLAELNHYFTAAGLRLRAQWQYGIVVFSVLQ | not soluble

Now look at this one.
Enquiry: Record request: soluble on expression in E. coli value, item `MGSDKIHHHHHHMGVKFTLMGTTAGLGVPAFHCNCIACREARADPFWARTRSGAVLETGKENILIDASPDLSKQLLRERIQSVDYLFVTHWHYDHFGGIGDLEYYVKLERKRPVALFLPPSAVDDFAKAYPFLEEVFVIEPWEFGKSYAFEGIELTVLPARHSIETGGILLAGAKRAAYFTDTSGLPAPTARQLQGVDTLICDATFNGANWFPHSHMNWQEAIALGESIRAQHTVLTHLAMHYSTPITAAQLQEKLKDYAQVSLAYDGMVLTI`
Return: not soluble

Origin of measurements: the DeepSol protein solubility set
